- Study Target: Man(b1-4)GlcNAc
- Assay Protocol: glycan array binding signal (z-score within array); higher = stronger binding
- Reported Conditions: glycan notation: IUPAC condensed, linker removed
This is one part of a sample in which the strongest signals are shown more often than they occur.
Measure: glycan array binding signal (z-score)

query: Reported glycan array binding signal (z-score) for Adiponectin (Rattus norvegicus), Q8K3R4 (protein) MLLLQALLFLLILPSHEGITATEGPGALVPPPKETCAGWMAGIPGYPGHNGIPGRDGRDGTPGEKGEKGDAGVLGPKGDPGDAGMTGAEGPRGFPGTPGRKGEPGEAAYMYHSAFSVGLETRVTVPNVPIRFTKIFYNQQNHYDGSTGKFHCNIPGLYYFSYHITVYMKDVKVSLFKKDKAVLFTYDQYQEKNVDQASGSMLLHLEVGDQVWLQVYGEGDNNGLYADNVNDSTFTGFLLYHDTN : what is it?
result: 0.155

query: Fill in: glycan array binding signal (z-score) of FBG5 (Homo sapiens), Q8NI29 (protein) MGASVSRGRAARVPAPEPEPEEALDLSQLPPELLLVVLSHVPPRTLLGRCRQVCRGWRALVDGQALWLLILARDHGATGRALLHLARSCQSPARNARPCPLGRFCARRPIGRNLIRNPCGQEGLRKWMVQHGGDGWVVEENRTTVPGAPSQTCFVTSFSWCCKKQVLDLEEEGLWPELLDSGRIEICVSDWWGARHDSGCMYRLLVQLLDANQTVLDKFSAVPDPIPQWNNNACLHVTHVFSNIKMGVRFVSFEHRGQDTQFWAGHYGARVTNSSVIVRVRLS is ___
result: -0.205

query: Tell me the measured glycan array binding signal (z-score) of DGL (Dioclea grandiflora), P08902 (protein) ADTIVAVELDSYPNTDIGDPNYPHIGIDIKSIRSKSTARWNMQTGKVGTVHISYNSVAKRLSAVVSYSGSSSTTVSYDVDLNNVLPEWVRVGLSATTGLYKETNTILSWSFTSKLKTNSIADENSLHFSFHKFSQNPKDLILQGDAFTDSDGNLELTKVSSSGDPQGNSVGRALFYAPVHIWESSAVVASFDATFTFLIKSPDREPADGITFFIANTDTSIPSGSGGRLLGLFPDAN , please.
result: -0.186

query: I'd like to know its glycan array binding signal (z-score). The binder in question is AICL (Homo sapiens), Q92478 (protein) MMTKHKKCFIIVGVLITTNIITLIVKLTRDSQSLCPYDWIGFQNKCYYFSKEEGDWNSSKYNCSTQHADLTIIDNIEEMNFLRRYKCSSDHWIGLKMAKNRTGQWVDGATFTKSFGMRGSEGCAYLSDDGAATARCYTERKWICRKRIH
result: -0.401

query: Form field: reported glycan array binding signal (z-score) of ArathEULS3 TAP (Arabidopsis thaliana) (protein) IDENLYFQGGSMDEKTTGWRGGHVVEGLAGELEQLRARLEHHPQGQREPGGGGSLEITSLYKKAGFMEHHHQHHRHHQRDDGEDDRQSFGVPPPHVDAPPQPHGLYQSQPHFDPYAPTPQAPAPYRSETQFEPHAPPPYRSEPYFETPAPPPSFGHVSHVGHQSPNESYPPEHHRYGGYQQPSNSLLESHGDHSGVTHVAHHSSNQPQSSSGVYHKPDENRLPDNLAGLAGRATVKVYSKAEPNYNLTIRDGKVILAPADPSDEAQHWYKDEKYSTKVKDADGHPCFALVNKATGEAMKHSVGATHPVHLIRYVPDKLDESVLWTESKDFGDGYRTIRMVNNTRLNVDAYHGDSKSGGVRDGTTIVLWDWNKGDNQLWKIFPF
result: -0.658
